Experiment: physchem
Settings: water, 37 °C, thermodynamic from solid
observation_type: solubility at 24 h (µg/mL)
Give the quantity in µg/mL, number only.

[[record]]
compound = "CCOc1ccc(Cc2cc([C@@H]3OC(CO)[C@@H](O)C(O)C3O)ccc2Cl)cc1 (some centres unmarked)"
experimental_value = 1200


What measured solubility at 24 h goes with "CCOc1ccc(Cc2cc([C@@H]3O[C@H](CO)[C@@H](O)[C@H](O)[C@H]3O)ccc2Cl)cc1" ?
1800

* * *

Test: physchem
Settings: medium of pH 4.5, 37 °C, pH 4.5, aqueous buffer, thermodynamic from solid
observation_type: solubility at 24 h (µg/mL)
Give the quantity in µg/mL, number only.

What measured solubility at 24 h goes with CCOc1ccc(Cc2cc([C@@H]3OC(CO)[C@@H](O)C(O)C3O)ccc2Cl)cc1 (stereo partly shown) ?
1200
